Molecular target: MNK2 (Homo sapiens)
Construct: the open reading frames of human Mnk1 and Mnk2a were amplified from cDNA
Sequence (Q9HBH9 whole entry): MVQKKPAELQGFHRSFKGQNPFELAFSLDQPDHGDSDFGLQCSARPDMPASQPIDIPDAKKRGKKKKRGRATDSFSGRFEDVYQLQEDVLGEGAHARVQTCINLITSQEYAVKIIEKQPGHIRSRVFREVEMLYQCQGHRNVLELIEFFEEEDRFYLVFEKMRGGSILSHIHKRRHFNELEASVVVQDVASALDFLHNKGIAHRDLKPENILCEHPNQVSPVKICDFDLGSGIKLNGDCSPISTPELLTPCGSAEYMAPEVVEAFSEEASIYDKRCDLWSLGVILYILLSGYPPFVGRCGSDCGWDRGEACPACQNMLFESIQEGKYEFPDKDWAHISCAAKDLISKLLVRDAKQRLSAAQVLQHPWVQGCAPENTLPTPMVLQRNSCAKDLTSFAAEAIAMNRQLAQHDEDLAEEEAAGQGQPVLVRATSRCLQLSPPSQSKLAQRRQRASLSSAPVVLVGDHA
Assay: Mnk2a in vitro kinase assay (indirect fluorescence polarization)
Conditions: pre-activated GST-Mnk2a 2.5 nM, 20 μM ATP, 30 μM substrate peptide
Description: Inhibitory potency of compounds against Mnk1, Mnk2a and other kinases was assessed with assays based on a format known to those skilled in the art as the indirect (competitive) fluorescence polarization. The assay detection system comprises a small fluorophore-labeled phospho-peptide (termed ligand) bound to a phospho-specific antibody. The product generated by the kinase reaction competes with the ligand for antibody binding. […]
pIC50: −log10 of the molar value.
quantity.measured: pIC50

# annotated cases, reported pIC50 shown
COC1CCCC(Oc2cc(F)ccc2Nc2ncnc3sc(C(=O)NCCCN(C)C)c(C)c23)C1 (stereo not shown)	7.72
Cc1c(C(=O)NCCCN(C)C)sc2ncnc(Nc3ccc(F)cc3O[C@H]3CC[C@@H](O)CC3)c12	7.44
Cc1c(C(N)=O)sc2ncnc(Nc3cccnc3O[C@H]3CC[C@@H](O)CC3)c12	8.00
CO[C@@H]1CCC[C@@H](Oc2ncccc2Nc2ncnc3sc(C(=O)NCCCCO)c(C)c23)C1 (racemic)	7.07

(a) CO[C@H]1CC[C@H](Oc2cc(F)ccc2Nc2ncnc3sc(C(=O)NCCN(C)C)c(C)c23)CC1
(b) CO[C@H]1CC[C@H](Oc2cc(F)ccc2Nc2ncnc3sc(C(=O)NCCCN(CCO)CCO)c(C)c23)CC1
(c) CO[C@H]1CC[C@H](Oc2cc(F)ccc2Nc2ncnc3sc(C(=O)NCc4cn(C)cn4)c(C)c23)CC1
Q. Returns the items ordered by pIC50, from maximum to minimum. State the ranking by listing the labels in the requested order.
A. b, c, a
(b: 8.15, c: 7.70, a: 7.37)

###

Biological target: MNK2 (Homo sapiens)
Construct: the open reading frames of human Mnk1 and Mnk2a were amplified from cDNA
Test: Mnk2a in vitro kinase assay (indirect fluorescence polarization)
Conditions: pre-activated GST-Mnk2a 2.5 nM, 20 μM ATP, 30 μM substrate peptide
pIC50: −log10 of the molar value.
quantity.measured: pIC50

Cc1c(C(=O)NCCCO)sc2ncnc(Nc3ccc(F)cc3O[C@H]3CC[C@H](O)CC3)c12	7.80

(P) Cc1c(C(N)=O)sc2ncnc(Nc3ccc(F)cc3O[C@@H]3CCC[C@@H](O)C3)c12 (racemic)
(Q) Cc1c(C(=O)NCCCN2CCC2)sc2ncnc(Nc3cccnc3O[C@H]3CC[C@H](O)CC3)c12
(R) Cc1c(C(=O)NCCCN2CCCC2)sc2ncnc(Nc3ccc(F)cc3OC3CCCCC3O)c12 (single isomer, unassigned) [Example 260]
(S) CO[C@H]1CCC[C@@H](Oc2ncccc2Nc2ncnc3sc(C(=O)NCCO)c(C)c23)C1 (racemic)
Q. Please rank these compounds by pIC50 in descending order. Reply: labels, ordered per the request.
A. P, S, Q, R
(P: 8.22, S: 7.74, Q: 7.24, R: 6.59)

(1) CO[C@H]1CCC[C@@H](Oc2cc(F)ccc2Nc2ncnc3sc(C(=O)NCCN4CCCCC4)c(C)c23)C1 (racemic)
(2) COC1CCCC(Oc2cc(F)ccc2Nc2ncnc3sc(C(=O)NCC4CNCCO4)c(C)c23)C1 (mixture of isomers) [Example 98]
Q. For the pair 1 and 2 , which member has the lower pIC50 number? The response must carry the label of the picked entry.
A. 1
(1: 7.30, 2: 7.77)

Origin of values: patent US8754079B2
